Tested on: Hepatitis C virus
method-notes: Antiviral activity against Hepatitis C virus subtype 1a replicons infected in human HuH7 cells assessed as reduction in viral RNA levels by Rt-PCR
Type: functional, organism-based, Hepacivirus hominis
condition-notes: Huh-7
reported-metric: log10 EC50 (log10 of the value in µM)
In our notation, the value equals log10 of EC50 in µM.

# annotated cases, reported log10 EC50 shown
> print(dat)
                                  structure  observed.measurement
1  Nc1ncnc2c1c(-c1cnn[nH]1)cn2[C@@H]1O[C@H](CO)[C@@H](O)[C@@H]1F                  0.26
2  C#Cc1cn([C@@H]2O[C@H](CO)[C@@H](O)[C@@H]2O)c2ncnc(N)c12                  0.19
3  C[C@@]1(O)[C@H](O)[C@@H](CO)O[C@H]1n1cc(-c2ccsc2)c2c(N)ncnc21                  1.56
4  C#Cc1cn([C@@H]2O[C@H](CO)[C@@H](O)[C@@H]2F)c2ncnc(N)c12                 -0.44

Now let's try a different one.
log10 EC50 reported for this molecule `C[C@@]1(O)[C@H](O)[C@@H](CO)O[C@H]1n1cc(-c2ccc3ccccc3c2)c2c(N)ncnc21` : 0.69

====

Tested on: CCRF-CEM
method-notes: Cytotoxicity against human CCRF-CEM cells incubated for 3 days by XTT assay
Assay type: functional, cell-based
condition-notes: 72 h
reported-metric: IC50 (µM)
# output: bare number, implied unit µM

# annotated cases, reported IC50 shown
> print(dat)
                                  structure  observed.measurement
1  Nc1ncnc2c1c(-c1ccco1)cn2[C@@H]1O[C@H](CO)[C@@H](O)[C@@H]1O                  6.64
2  C[C@@]1(O)[C@H](O)[C@@H](CO)O[C@H]1n1cc(-c2ccc3ccccc3c2)c2c(N)ncnc21                  3.95
3  Nc1ncnc2c1c(-c1ccsc1)cn2[C@@H]1O[C@H](CO)[C@@H](O)[C@@H]1O                   3.1
4  Nc1ncnc2c1c(-c1cn[nH]c1)cn2[C@@H]1O[C@H](CO)[C@@H](O)[C@@H]1F                  9.07
5  Nc1ncnc2c1c(-c1cccs1)cn2[C@@H]1O[C@H](CO)[C@@H](O)[C@@H]1O                  4.25
6  C#Cc1cn([C@@H]2O[C@H](CO)[C@@H](O)[C@@H]2F)c2ncnc(N)c12                  0.18
7  Nc1ncnc2c1c(I)cn2[C@@H]1O[C@H](CO)[C@@H](O)[C@@H]1O                  7.02

Now let's try a different one.
CCRF-CEM data for `C[C@@]1(O)[C@H](O)[C@@H](CO)O[C@H]1n1cc(I)c2c(N)ncnc21` ; its IC50: 4.38

====

method-notes: Cytotoxicity against human HeLaS3 cells incubated for 3 days by XTT assay
Format: functional, cell-based
condition-notes: HeLa S3, 72 h
reported-metric: IC50 (µM)
# output: bare number, implied unit µM

> print(dat)
                                  structure  unit.name  observed.measurement
1  Nc1ncnc2c1c(-c1cnn[nH]1)cn2[C@@H]1O[C@H](CO)[C@@H](O)[C@@H]1F         µM                  6.66

Now let's try a different one.
IC50 reported for this molecule `Nc1ncnc2c1c(I)cn2[C@@H]1O[C@H](CO)[C@@H](O)[C@@H]1O` : 3.19
